assay: Toxicity to brine shrimp; type: organism-based; conditions: artemia, in vivo
Assign LC50 to each entry below.

Answer with reported LC50 of CCCCCCCCCCCC[C@H](O)[C@H]1CC[C@H]([C@H](O)CCCC[C@H](O)CCCCC[C@@H]2C[C@H](CC(C)=O)C(=O)O2)O1 0.112 µg/mL

Answer with reported LC50 of CCCCCCCCCCCC[C@H](O)[C@H]1CC[C@H]([C@H](O)CCCC[C@H](O)CCCCC[C@@H]2C[C@@H](CC(C)=O)C(=O)O2)O1 0.112 µg/mL

Answer with reported LC50 of COc1cccc2c1C(=O)c1c(O)c3c(c(O)c1C2=O)C[C@@](O)(C(=O)CO)C[C@@H]3O[C@H]1C[C@H](N)[C@H](O)[C@H](C)O1 [DOXORUBICIN] 0.313 µg/mL
